Assay: chemical genetic growth profiling, strain panel (AID 1159580);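 note: tested at 20 µM; growth read once vehicle control cultures reached saturation at 30 °C; 1 = growth at the plate median or of vehicle wells; lower values mean less growth of the strain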
Conditions: S. cerevisiae deletion strains, growth OD, locus YMR058W, strain fet3, stronger effect = lower value
About 2,000 (36%) of roughly 5,500 compounds were called active. Not shown: some 18% with an inconclusive outcome. The list shows a part of the results.
Catalogue of normalized growth readings, one per entry.
measurement.kind: normalized growth

> print(dat)
                                   compound  value.reported
1  CC(CCC(=O)O)[C@H]1CCC2C3C(C[C@H](O)[C@@]21C)[C@@]1(C)CC[C@@H](O)C[C@H]1C[C@H]3O (stereo partly drawn)            1.03
2  CC(CCC(=O)O)[C@H]1CCC2C3C[C@H](O)[C@@H]4C[C@H](O)CC[C@]4(C)C3CC[C@@]21C (stereo partly drawn)           0.997
3  CC(=O)OCC(=O)[C@@]1(O)[C@H](OC(C)=O)CC2C3CCC4=CC(=O)C=C[C@]4(C)[C@@]3(F)[C@@H](O)C[C@@]21C (stereo partly drawn)           0.991
4  CC(C)CCCC(C)C1CCC2C3CC[C@H]4CCCC[C@]4(C)C3CC[C@]12C (stereo partly drawn)            1.01
5  C[C@H](CCC(=O)O)[C@H]1CCC2C3C(CC[C@@]21C)[C@@]1(C)CC[C@@H](O)C[C@H]1C[C@H]3O (stereo partly drawn)            1.01
6                    c1ccc2c(c1)CN1CCCC1=N2               1
7  COC(=O)CCC(C)[C@H]1CCC2C3C(C[C@H](O)[C@@]21C)[C@@]1(C)CC[C@@H](O)C[C@H]1C[C@H]3O (stereo partly drawn)            1.02
8  C[C@@H]1CC2C3C[C@H](F)C4=CC(=O)C=C[C@]4(C)[C@@]3(F)[C@@H](O)C[C@]2(C)[C@@]1(O)C(=O)COC(=O)C(C)(C)C (stereo partly drawn)            1.01

----------
Assay: chemical genetic growth profiling, strain panel (AID 1159580);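 note: tested at 20 µM; growth read once vehicle control cultures reached saturation at 30 °C; 1 = growth at the plate median or of vehicle wells; lower values mean less growth of the strain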
Details: S. cerevisiae deletion strains, growth OD, locus YHR142W, strain chs7, stronger effect = lower value
Among all 5,500 compounds or so, about 2,000 (36%) were called active. Roughly 18% stayed inconclusive and do not appear here. Some of the results follow.
Catalogue of normalized growth readings, one per entry.

compound	normalized growth
c1ccc2c(c1)CN1CCCC1=N2	1.01
O=c1cc(-c2ccccc2)oc2cccc(O)c12	0.765
NCC(CC(=O)O)c1ccc(Cl)cc1 (centres undefined)	0.958
C[C@H](N)[C@H](O)c1cccc(O)c1	1
C[C@]12C=CC(=O)C=C1CCC1C3C[C@@H](O)[C@](O)(C(=O)CO)[C@@]3(C)C[C@H](O)[C@@]12F (some centres undefined)	0.956
CN(C)CCOC(=O)COc1ccc(Cl)cc1	0.962
CN(C)CCOC(=O)C(c1ccccc1)C1(O)CCCC1 (centres undefined)	0.985
C=C[C@H]1CN2CC[C@H]1C[C@@H]2[C@H](O)c1ccnc2ccccc12	0.974
Cc1nc2ccccn2c(=O)c1CCN1CCC(C(=O)c2ccc(F)cc2)CC1	0.968
O=c1[nH]cnc2[nH]ncc12	0.998
C=C1C2CCC3(C)C(c4ccoc4)OC(=O)CC13OC1CC(OC(C)=O)C(C)(C)C(CC(=O)OC)C12C (centres undefined)	0.99
C=C1[C@H]2CC[C@@]3(C)[C@H](c4ccoc4)OC(=O)C[C@]13O[C@H]1C[C@H](O)C(C)(C)[C@H](CC(=O)OC)[C@]12C	1.01
CN[C@@H]1[C@H](OC2[C@H](O[C@H]3[C@H](O)[C@@H](O)[C@H](N=C(N)N)[C@@H](O)[C@@H]3N=C(N)N)O[C@@H](C)[C@]2(O)C=O)O[C@@H](CO)[C@H](O)[C@H]1O (some centres undefined)	1
C[C@@H](N)[C@@H](O)c1ccccc1	0.971
OC[C@H]1OC([S-])[C@H](O)[C@@H](O)[C@@H]1O.[Au+] (some centres undefined)	0.995
O=c1cc(-c2ccccc2)oc2cc(O)c(O)c(O)c12	0.285
Clc1ccc2c(c1)C(N1CCNCC1)=Nc1ccccc1O2	0.957
CN1CCN(C2=Nc3ccccc3Oc3ccc(Cl)cc32)CC1	0.956
NC(=O)c1ncn(C2O[C@H](CO)[C@@H](O)[C@H]2O)c1N (some centres undefined)	1.02
CC1(C)C(O)CC(O)C2(C)C1CC(O)C1(C)C2CCC2(C)C(c3ccoc3)OC(=O)C3OC321 (centres undefined)	0.972
CN(CCC(N)CC(=O)N[C@H]1C=CC(n2ccc(N)nc2=O)O[C@@H]1C(=O)O)C(=N)N (some centres undefined)	0.846
CCC(=O)Nc1ccc(Cl)c(Cl)c1	1
CN(C)C(=O)Nc1ccc(Cl)c(Cl)c1	0.887
CNC(=O)Oc1ccc2c(c1)[C@]1(C)CCN(C)[C@@H]1N2C	1.04
